What koff was measured for each of the following?
# measured_on: T1, human IL-17F (human, UniProt Q96PD4 31-163)
# T1 construct: made in Hek293 cells (GenBank AF384857); also called hIL-17F; hIL17F
# T1 sequence: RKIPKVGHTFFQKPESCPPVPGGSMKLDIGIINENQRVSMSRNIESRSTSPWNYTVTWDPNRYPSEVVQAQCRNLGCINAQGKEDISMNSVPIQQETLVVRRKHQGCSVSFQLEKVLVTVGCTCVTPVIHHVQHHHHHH
# run_description: SPR (Biacore) off-rate
Kindly report the value followed by its unit.

// worked examples, koff included
IL17MS13E02 (VHH, Class 4 Nanobody, wild type; also called WT) VHH: EVQLVESGGGLVQAGGSLRLSCAASGRTYDAMGWLRQAPGKEREFVAAISGSGDDTYYADSVKGRFTISKDNAGITMYLQMNSLKPEDTAVYYCATRRGLYYVWDSNDYENWGQGTQVTVSS ... 0.00223 s⁻¹
IL17MS3035 (VHH, variant of IL17MS13E02; Kabat numbering) VHH: EVQLVESGGGLVQAGGSLRLSCAASGRTYDAMGWLRQAPGKEREFVAAISGSGDDTYYADSVKGRFTISKDNAGITLYLQMNSLKPEDTAVYYCATRRGLYYVWDSNDYENWGQGTQVTVSS ... 0.00431 s⁻¹

Would you mind listing koff for each of the following binders?
1. IL17MS3027 (VHH, variant of IL17MS13E02; Kabat numbering) VHH: EVQLVESGGGLVQPGGSLRLSCAASGRTYDAMGWLRQAPGKEREFVAAISGSGDDTYYADSVKGRFTISRDNSGNTMYLQMNSLRPEDTAVYYCATRRGLYYVWDSNDYENWGQGTLVTVSS
2. IL17MS3034 (VHH, variant of IL17MS13E02; Kabat numbering) VHH: EVQLVESGGGLVQAGGSLRLSCAASGRTYDALGWLRQAPGKEREFVAAISGSGDDTYYADSVKGRFTISKDNAGITMYLQMNSLKPEDTAVYYCATRRGLYYVWDSNDYENWGQGTQVTVSS

Result string:
1. 0.0013 s⁻¹
2. 0.00596 s⁻¹
